test: gradient 5% acetonitrile 3 min, to 50% in 2 min, to 85% in 15 min, held 3 min, 100 µL/min; settings: column: Zorbax Extend-C18 2.1 x 50 mm; eluents: water / acetonitrile, 0.1% formic acid
VALUE_KIND: RP-LC retention time (s)

// worked examples, RP-LC retention time included
- COMPOUND: "CN1C(=O)Cc2cc(C(=O)N3CCN(c4ccc(Cl)cc4)CC3)ccc21"
  RESULT_VALUE: 813
- COMPOUND: "CCn1c(CNC(=O)C2CCC2)nc2c1CN(S(=O)(=O)c1ccc(Cl)cc1)CC2"
  RESULT_VALUE: 692
- COMPOUND: "CCN(CC)CCNC(=O)CN1CC(C)Sc2ccccc21 (stereo not drawn)"
  RESULT_VALUE: 656

(1) O=C(CCc1ccccc1)N1CCCC1c1nc(-c2ccccc2Cl)no1 (stereo not drawn)
(2) O=C(NCc1cccc(F)c1)N1CCC(Nc2cccnc2)C1 (stereo not drawn)
Query :: Task for the reader: decide whether 1 or 2 has the larger RP-LC retention time. Bench note: the answer is the label of the chosen record.
Result :: 1
(1: 1040 s, 2: 606 s)

(1) O=C(C1CCCN(c2nnc(-n3cccc3)s2)C1)N1CCN(c2ccccc2)CC1 (stereo not drawn)
(2) CCN(CC)C(=O)NCCc1noc(COC)n1
Query :: Task for the reader: decide whether 1 or 2 has the larger RP-LC retention time. Bench note: the answer is the label of the chosen record.
Result :: 1

(P) O=C(NCC1CCCO1)C1CCN(S(=O)(=O)c2cc(-c3noc(C4CCC4)n3)cs2)CC1 (stereo not drawn)
(Q) CC(=O)N1C[C@@H]2CCCN3CCC[C@@H]([C@H]23)[C@H]1CCCC(=O)NCCN(C)C1CCCCC1
Query :: Task for the reader: decide whether P or Q has the larger RP-LC retention time. Bench note: the answer is the label of the chosen record.
Result :: P
(P: 858 s, Q: 538 s)
